- Measurement Target: mu opioid receptor (MOR) (Homo sapiens, UniProt P35372)
- Sequence (P35372 whole entry): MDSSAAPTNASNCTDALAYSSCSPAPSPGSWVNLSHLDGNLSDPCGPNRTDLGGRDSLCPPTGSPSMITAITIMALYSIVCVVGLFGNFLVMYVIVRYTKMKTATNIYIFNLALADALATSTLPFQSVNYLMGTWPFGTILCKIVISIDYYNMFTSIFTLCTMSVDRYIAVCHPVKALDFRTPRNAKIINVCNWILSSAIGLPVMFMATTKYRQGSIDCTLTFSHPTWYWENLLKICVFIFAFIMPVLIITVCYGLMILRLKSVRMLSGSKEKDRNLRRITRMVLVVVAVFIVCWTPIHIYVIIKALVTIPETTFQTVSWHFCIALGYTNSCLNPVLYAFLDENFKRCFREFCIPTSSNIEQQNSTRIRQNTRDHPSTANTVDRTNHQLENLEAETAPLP
- Assay Explanation: Hit Hunter cAMP signaling assay (adenylyl cyclase inhibition), PAM mode with EC20 endomorphin-1
- Assay type: cell-based
- Condition Label: adenylyl cyclase inhibition; read-out: cAMP EC50
Each entry below carries its recorded EC50.

>  <Molecule>
CC1CCN(S(=O)(=O)c2ccc(Cl)cc2)C1c1ccc(F)c(Br)c1 (centres unmarked) [Compound 106]

>  <EC50>
< 0.7 µM

$$$$
>  <Molecule>
Fc1cc(C2COCCN2c2nc(Cl)ncc2F)cc(C(F)(F)F)c1 (racemic) [Compound 190]

>  <EC50>
< 0.7 µM

$$$$
>  <Molecule>
O=S(=O)(c1ccc(Cl)cc1)N1CCCCC1c1cc(F)cc(C(F)(F)F)c1 (racemic) [compound 50]

>  <EC50>
0.7 to 2.1 µM

$$$$
>  <Molecule>
CS(=O)(=O)N1CCN(c2nc(Cl)ncc2F)C(c2cc(F)cc(C(F)(F)F)c2)C1 (racemic) [Compound 309]

>  <EC50>
> 2.1 µM

$$$$
>  <Molecule>
CC(C)(O)C(=O)N1CCN(c2nc(Cl)ncc2F)C(c2cc(F)cc(C(F)(F)F)c2)C1 (racemic) [Compound 307]

>  <EC50>
> 2.1 µM

$$$$
>  <Molecule>
Fc1cnc(Cl)nc1N1CCOCC1c1cccc(C(F)(F)F)c1 (racemic) [Compound 188]

>  <EC50>
0.7 to 2.1 µM

$$$$
>  <Molecule>
O=S(=O)(c1ccc(Cl)cc1)N1CCCCC1c1ccc(F)c(Br)c1 (single isomer, unassigned) [compound 56]

>  <EC50>
0.7 to 2.1 µM

$$$$
>  <Molecule>
O=S(=O)(c1ccc(Cl)cc1)N1CCCCC1c1ccc(Cl)c(Br)c1 (racemic) [compound 74]

>  <EC50>
> 2.1 µM

$$$$

====

The following compounds are shown together with reported EC50 values.
- Measurement Target: mu opioid receptor (MOR) (Homo sapiens)
- Assay Explanation: PathHunter β-arrestin recruitment assay, PAM mode with EC20 endomorphin-1
- Format: cell-based
- Condition Label: β-arrestin recruitment; read-out: β-arr. EC50
- Method: The effects of MOR PAMs and MOR SAMs on receptor activity were assayed using the PathHunter enzyme complementation assay technology (DiscoveRx, CA). A description of the technology employed is as follows. […] In this manner an EC50 for each test compound, and percent maximal response for each test compound, were determined for both the β-arrestin and cAMP pathways. […]

>  <Compound>
O=S(=O)(Cc1ccccc1Cl)N1C2CCC(C2)C1c1ccc(F)c(Br)c1 (stereo not drawn)

>  <EC50>
> 2.1 µM

$$$$
>  <Compound>
Fc1cc(C2CCCCN2Cc2cccc(Cl)c2)cc(C(F)(F)F)c1 (stereo not drawn)

>  <EC50>
> 2.1 µM

$$$$
>  <Compound>
O=S(=O)(c1ccc(Cl)cc1)N1C2CCC(C2)C1c1ccc(F)c(Br)c1 (stereo not drawn) [Compound 178]

>  <EC50>
< 0.7 µM

$$$$
>  <Compound>
Cc1nccc(N2CCCCC2c2ccc(F)c(Cl)c2)n1 (stereo not drawn)

>  <EC50>
> 2.1 µM

$$$$
>  <Compound>
CN(C)c1cccc(C2CCCCN2c2nc(N(C)C)ncc2F)n1 (stereo not drawn)

>  <EC50>
> 2.1 µM

$$$$
>  <Compound>
Fc1cnc(Cl)nc1N1CCCCC1c1ccc(Cl)c(C(F)(F)F)c1 (single isomer, unassigned) [compound 348]

>  <EC50>
< 0.7 µM

$$$$
>  <Compound>
Fc1cc(C2CCCCN2Cc2cccc(Br)c2)cc(C(F)(F)F)c1 (stereo not drawn)

>  <EC50>
0.7 to 2.1 µM

$$$$
>  <Compound>
Fc1cccc(C2CCCCN2Cc2cc(Cl)ccc2F)n1 (stereo not drawn)

>  <EC50>
0.7 to 2.1 µM

$$$$
>  <Compound>
Fc1ccc(C2CC=CCN2c2nc(Cl)ncc2F)cc1Br (stereo not drawn)

>  <EC50>
< 0.7 µM

$$$$

====

- Measurement Target: mu opioid receptor (MOR) (Homo sapiens, UniProt P35372)
- Assay Explanation: PathHunter β-arrestin recruitment assay, PAM mode with EC20 endomorphin-1
- Format: cell-based
- Condition Label: β-arrestin; EC20 EM-1 agonism of MOR
Please use condition met whenever Max. Response is not below 200, and condition not met whenever it is.

>  <Molecule>
Fc1cnc(Cl)nc1N1CCCCC1c1cccc(C(F)(F)F)c1 (single isomer, unassigned) [compound 8]

>  <Measurement Target>
mu opioid receptor (MOR) (Homo sapiens, UniProt P35372)

>  <Answer Label>
condition met

$$$$
>  <Molecule>
COc1ccc(C2CCCCN2S(=O)(=O)c2ccc(Cl)cc2)cc1Br (single isomer, unassigned)

>  <Measurement Target>
mu opioid receptor (MOR) (Homo sapiens, UniProt P35372)

>  <Answer Label>
condition not met

$$$$
>  <Molecule>
Fc1ccc(Cl)cc1CN1CCCCC1c1cccc(C(F)(F)F)n1 (centres unmarked)

>  <Measurement Target>
mu opioid receptor (MOR) (Homo sapiens, UniProt P35372)

>  <Answer Label>
condition not met

$$$$
>  <Molecule>
Fc1cnc(Cl)nc1N1CCCCC1c1cccc(C(F)(F)F)c1 (single isomer, unassigned) [compound 9]

>  <Measurement Target>
mu opioid receptor (MOR) (Homo sapiens, UniProt P35372)

>  <Answer Label>
condition met

$$$$
>  <Molecule>
Fc1cnc(Cl)nc1N1CCCCC1c1cccc(C(F)(F)F)n1 (centres unmarked)

>  <Measurement Target>
mu opioid receptor (MOR) (Homo sapiens, UniProt P35372)

>  <Answer Label>
condition not met

$$$$

====

- Measurement Target: MOR (Homo sapiens)
- Sequence (P35372 whole entry): as above
- Assay Explanation: cell-based
- Condition Label: RC50, β-arrestin; EC20 Oxycodone agonism of MOR
pEC50: −log10 of the molar value.
Below is a list of entries, each paired with its recorded pEC50 value.
Readout Name: pEC50

>  <Molecule>
Fc1ccc(Cl)cc1CN1CCCCC1c1cccc(C(F)(F)F)n1 (centres unmarked)

>  <Readout Name>
pEC50

>  <Qualifier>
=

>  <Reported Result>
4.87

$$$$
>  <Molecule>
COc1ccc(C2CCCCN2S(=O)(=O)c2ccc(Cl)cc2)cc1Br (single isomer, unassigned)

>  <Readout Name>
pEC50

>  <Qualifier>
=

>  <Reported Result>
5.32

$$$$
>  <Molecule>
Fc1cnc(Cl)nc1N1CCCCC1c1cccc(C(F)(F)F)c1 (single isomer, unassigned) [compound 8]

>  <Readout Name>
pEC50

>  <Qualifier>
=

>  <Reported Result>
4.89

$$$$
>  <Molecule>
Fc1cnc(Cl)nc1N1CCCCC1c1cccc(C(F)(F)F)n1 (centres unmarked)

>  <Readout Name>
pEC50

>  <Qualifier>
<

>  <Reported Result>
4.60

$$$$
>  <Molecule>
Fc1cnc(Cl)nc1N1CCCCC1c1cccc(C(F)(F)F)c1 (single isomer, unassigned) [compound 9]

>  <Readout Name>
pEC50

>  <Qualifier>
=

>  <Reported Result>
4.96

$$$$

====

- Measurement Target: mu opioid receptor (MOR) (Homo sapiens, UniProt P35372)
- Assay Explanation: PathHunter β-arrestin recruitment assay, PAM mode with EC20 endomorphin-1
- Type: cell-based
- Condition Label: β-arrestin recruitment; read-out: β-arr. EC50
pEC50: −log10 of the molar value.
Readout Name: pEC50

>  <Molecule>
Cc1cc(C2CCCCN2c2nc(Cl)ncc2F)ccc1F (centres unmarked)

>  <Reported Result>
> 6.15

$$$$
>  <Molecule>
COc1ccc(C2COCCN2c2nc(Cl)ncc2F)cc1Br (racemic)

>  <Reported Result>
< 5.68

$$$$
>  <Molecule>
Fc1cnc(Cl)cc1N1CCCCC1c1cccc(C(F)(F)F)c1 (centres unmarked)

>  <Reported Result>
5.68 to 6.15

$$$$
>  <Molecule>
Fc1cnc(Cl)nc1N1CCCCC1c1cccc(OC(F)(F)F)n1 (centres unmarked)

>  <Reported Result>
5.68 to 6.15

$$$$
>  <Molecule>
O=S(=O)(c1ccc(Cl)cc1)N1CCCCC1c1cccc(C(F)(F)F)n1 (centres unmarked)

>  <Reported Result>
> 6.15

$$$$

====

- Measurement Target: MOR (Homo sapiens)
- Assay Explanation: cell-based
- Condition Label: cAMP; EC20 morphine agonism of MOR
So basically: is Max. Response under 30? Then T. Not under? Then F.

>  <Molecule>
Fc1ccc(Cl)cc1CN1CCCCC1c1cccc(C(F)(F)F)n1 (centres unmarked) [compound 2]

>  <Answer Label>
T

$$$$
>  <Molecule>
Fc1cnc(Cl)nc1N1CCCCC1c1cccc(C(F)(F)F)c1 (single isomer, unassigned) [compound 8]

>  <Answer Label>
F

$$$$
>  <Molecule>
Fc1cnc(Cl)nc1N1CCCCC1c1cccc(C(F)(F)F)n1 (centres unmarked) [compound 123]

>  <Answer Label>
T

$$$$
>  <Molecule>
COc1ccc(C2CCCCN2S(=O)(=O)c2ccc(Cl)cc2)cc1Br (single isomer, unassigned) [compound 6]

>  <Answer Label>
F

$$$$
>  <Molecule>
Fc1cnc(Cl)nc1N1CCCCC1c1cccc(C(F)(F)F)c1 (single isomer, unassigned) [compound 9]

>  <Answer Label>
F

$$$$

Origin of values: patent US11071731B2
